meta.source: ChEMBL document CHEMBL1148265

Assignment: determine reported pIC50 for the given compounds.
- test-system: Cyclin-dependent kinase 4/cyclin D (Homo sapiens, UniProt P11802)
- experiment-notes: Inhibition of Cyclin-dependent kinase 4-cyclin D
Please report pIC50 as the negative decimal logarithm of the molar concentration, giving only the number.

# lookup: pIC50 of CC(C)(C)c1cnc(CSc2cnc(Nc3ccc(S(=O)(=O)NCCO)cc3)s2)o1
6.63

Can you share its pIC50? I mean this compound: CC(C)(CO)CNCc1ccc(Nc2ncc(SCc3ncc(C(C)(C)C)o3)s2)nc1
7.59

Find the recorded pIC50 belonging to CC(C)(C)c1cnc(CSc2cnc(Nc3ccccc3)s2)o1 and report it.
7.11

Endpoint output: pIC50 of CC(C)(C)c1cnc(CSc2cnc(Nc3ccccn3)s2)o1 . Value?
8.05

So what's the measured pIC50 for this one? CC(C)(C)c1cnc(CSc2cnc(Nc3cccnc3)s2)o1
6.89

Any idea what pIC50 was measured for CC(C)(C)c1cnc(CSc2cnc(NC(=O)Cc3cccnc3)s2)o1 ?
5.96
